# TARGET SYSTEM: T1, recombinant human CD40-Fc (human, UniProt P25942 21-193)
# T1 construct: also called rh-CD40-Fc; CD40-hFc
# T1 sequence (P25942 21-193): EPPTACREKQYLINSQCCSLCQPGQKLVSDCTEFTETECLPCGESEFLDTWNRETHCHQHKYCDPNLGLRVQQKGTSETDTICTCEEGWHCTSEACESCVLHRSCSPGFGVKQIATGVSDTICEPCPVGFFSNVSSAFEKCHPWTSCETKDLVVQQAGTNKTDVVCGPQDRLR
# TEST NAME: ELISA, CD40-Fc coated, VHH at 200 nM
Can you tell me OD450 for the items I'm about to list?
Answers are plain numbers.

Would you be so kind as to report OD450 for each listed record?
1. pgDD40-SZ-7 (VHH, not shown: small tags and cut ends) VHH: QVQLVESGGALAQPGGSLRLSCEASATVRSVNAMAWYRQGPGKPRELVANITSGDTTYYADSVKGRFTLSREGARNTVYLQMNSLKPEDTAVYQCNIHYTSTGGIRRDYWGRGTQVTVSS
2. pgDD40-HZ-15 (VHH, not shown: small tags and cut ends) VHH: EVQLVESGGGLVQAGGSLRLSCAASGFTFDDYAIGWFRQAPGKEREGVSCLSKNVGNTYYADSVKGRFTISSDNAKNTVYLQMNSLKPEDTAVYYCAKGSGYGCYDFPRYAVWGQGTQVTVSS
3. pgDD40-SZ-2 (VHH, not shown: small tags and cut ends) VHH: EVQLVESGGALAQPGGSLRLSCEASATIRSVNAMAWYRQGPGKPREMVANITSGDTTYYADSVKGRFTLSREGARNTVYLQMNSLKPEDTAVYQCNIHYTSTGGIRRDYWGRGTQVTVSS

Ans.
1: 1.62; 2: 0.166; 3: 1.52

Would you be so kind as to report OD450 for each listed record?
1. pgDD40-SZ-5 (VHH, not shown: small tags and cut ends) VHH: QVQLVESGGALAQPGGSLRLSCEASENVRSVNAMAWYRQGPGKPRELVANITSGDATYYADSVKGRFTLSREGARNTVYLQMNSLKPEDTAVYQCNVHYTSWGGIRRDYWGRGTQVTVSS
2. pgDD40-HZ-47 (VHH, not shown: small tags and cut ends) VHH: QVQLVESGGGLVQPGGSMRLSCSASGFSISVYWMSWVRRAPGKGLEWVSNLGADGVTAQYSDSVKGRFTIARDTAKNTLYLQMNSLKPEDTAVYYCNAMTGMNPAEEEAYWGQGTQVTVSS
3. pgDD40-HZ-28 (VHH, not shown: small tags and cut ends) VHH: EVQLVESGGGLVQAGGSLRLSCVASERTFTPVRMGWFRQAPGKEREIVAAITWSDGSTYYADAVKGRFTISRDNALNAVYLQIDSLKPEDTAVYVCAASTSPYSTHLQFRYWGQGTQVTVSS
4. pgDD40-HZ-24 (VHH, not shown: small tags and cut ends, also called pgDD40-HG-24) VHH: EVQLVESGGGSVQAGGSLRLSCAASLSTFSNYRMGWFRRAPGKERELVARIEPHGVVDYGDSVKGRFTISRDNAKNTVTVYLHMNSLKPEDTAVYYCNALRLISGRYDPLFSSWGQGTQVTVSS
5. pgDD40-SZ-3 (VHH, not shown: small tags and cut ends) VHH: QVQLVESGGGLVQAGDSLRLSCTASGRAFNTYTMAWFRQAPGKERDFVAAISRDGTITHYADSVKGRFTTTRDNAKNTMYLQMSSLKYDDTAVYYCAARRVGAVPERESAYEHWGQGTQVTVSS

Ans.
1.73
0.126
0.123
1.84
1.64

Would you be so kind as to report OD450 for each listed record?
1. pgDD40-SZ-1 (VHH, not shown: small tags and cut ends) VHH: QVQLVESGGALAQPGGSLRLSCEASTNVRSVNAMAWYRQGPGKPRELVANITSDDATYYADSVKGRFTLSREGARNTVYLQMNSLKPEDTAVYQCNVHYTSWGGIRRDYWGRGTQVTVSS
2. pgDD40-SZ-12 (VHH, not shown: small tags and cut ends) VHH: EVQLVESGGGLVQPGGSLKLSCAASGFAFSRYTMSWVRQAPGKGLEWVSGIDSGGGRTSYINSVKGRFTISRDNAKNTLYLQMNSLKPEDTAVYHCAQGGDSGSYYRTSWGQGTQVTVSS

Ans.
[1.69, 0.895]
